test system: Human immunodeficiency virus 1; assay: Compound was evaluated for the antiviral activity against human immunodeficiency virus-1(HIV-1); assay type: functional, organism-based
pIC50: −log10 of the molar value.
Each entry below carries its recorded pIC50.

CCc1cn([C@@H]2C[C@@H](O)[C@H](CO)S2)c(=O)[nH]c1=O = < 4.30

Consider the additional molecule presented here.
// query Tell us which pIC50 value is on record for CCc1cn([C@H]2C[C@H](O)[C@@H](CO)S2)c(=O)[nH]c1=O
// result < 4.00

Each recorded value in this set is attributed to ChEMBL document CHEMBL1129021.
